- TESTED_TARGET: Protein mono-ADP-ribosyltransferase PARP8 (Homo sapiens, UniProt Q8N3A8)
- Sequence (Q8N3A8 whole entry): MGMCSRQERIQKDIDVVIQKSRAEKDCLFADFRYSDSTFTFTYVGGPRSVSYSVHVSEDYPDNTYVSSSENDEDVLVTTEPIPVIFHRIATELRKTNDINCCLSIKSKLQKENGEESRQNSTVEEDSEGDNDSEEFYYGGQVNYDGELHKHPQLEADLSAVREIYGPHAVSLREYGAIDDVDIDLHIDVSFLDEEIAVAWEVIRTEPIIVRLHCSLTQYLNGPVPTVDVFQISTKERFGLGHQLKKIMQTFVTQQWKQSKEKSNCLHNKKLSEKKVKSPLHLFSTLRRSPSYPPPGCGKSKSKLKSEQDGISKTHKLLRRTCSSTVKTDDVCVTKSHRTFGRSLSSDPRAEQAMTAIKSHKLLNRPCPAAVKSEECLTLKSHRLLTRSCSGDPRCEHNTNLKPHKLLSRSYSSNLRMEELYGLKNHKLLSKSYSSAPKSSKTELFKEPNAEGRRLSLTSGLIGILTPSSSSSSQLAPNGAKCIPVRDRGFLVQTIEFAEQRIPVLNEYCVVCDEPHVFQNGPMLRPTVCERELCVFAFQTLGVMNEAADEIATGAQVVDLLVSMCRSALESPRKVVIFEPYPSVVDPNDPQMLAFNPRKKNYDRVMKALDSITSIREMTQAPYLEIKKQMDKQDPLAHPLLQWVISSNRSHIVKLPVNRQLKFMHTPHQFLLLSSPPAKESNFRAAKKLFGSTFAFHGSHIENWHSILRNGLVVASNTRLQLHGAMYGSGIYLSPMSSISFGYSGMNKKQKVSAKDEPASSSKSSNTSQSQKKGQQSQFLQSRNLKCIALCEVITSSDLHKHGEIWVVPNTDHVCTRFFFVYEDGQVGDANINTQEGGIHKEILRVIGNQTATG
OUTCOME_MEASURE: pKd
# pKd: negative log10 of molar concentration; output just the value

## Input # returns recorded pKd (system: Protein mono-ADP-ribosyltransferase PARP8 (Homo sapiens, UniProt Q8N3A8)) for Cn1ncnc1[C@H]1c2n[nH]c(=O)c3cc(F)cc(c23)N[C@@H]1c1ccc(F)cc1
## Output 5.96
